Reference source: patent US10278971B2

experiment: First-in-human study: pharmacokinetics, safety and tolerability; format: in vivo; conditions: both sexes, human, plasma; single oral dose 50 mg; read-out: mean Tmax

molecule | Tmax
Nc1ccn([C@@H]2C(F)=C(CO)[C@@H](O)[C@H]2O)c(=O)n1 [RX-3117] | 2.16 h

====

test: Open-label dose-ranging study: pharmacokinetics, safety and tolerability of oral doses; format: in vivo, human; conditions: human, in vivo, po, 150 mg, Cmax

item smiles | unit of measure | Cmax
Nc1ccn([C@@H]2C(F)=C(CO)[C@@H](O)[C@H]2O)c(=O)n1 | ng/mL | 511

====

experiment: Open-label dose-ranging study: pharmacokinetics, safety and tolerability of oral doses; format: in vivo, human; settings: human, in vivo, po, 30 mg, Tmax

item smiles | Tmax / h
Nc1ccn([C@@H]2C(F)=C(CO)[C@@H](O)[C@H]2O)c(=O)n1 | 2

====

assay: Open-label dose-ranging study: pharmacokinetics, safety and tolerability of oral doses; format: in vivo, human; details: human, in vivo, po, 700 mg, AUC0-24

item smiles | AUC(0-t) [ng·h/mL]
Nc1ccn([C@@H]2C(F)=C(CO)[C@@H](O)[C@H]2O)c(=O)n1 | 8660

====

assay: Open-label dose-ranging study: pharmacokinetics, safety and tolerability of oral doses; assay type: in vivo, human; conditions: human, in vivo, po, 150 mg, T1/2

compound | half-life
Nc1ccn([C@@H]2C(F)=C(CO)[C@@H](O)[C@H]2O)c(=O)n1 [RX-3117] | 13.9 h

====

experiment: First-in-human study: pharmacokinetics, safety and tolerability; format: in vivo; conditions: both sexes, human, plasma; single oral dose 50 mg

item smiles | half-life (h)
Nc1ccn([C@@H]2C(F)=C(CO)[C@@H](O)[C@H]2O)c(=O)n1 | 13.9

====

test: Open-label dose-ranging study: pharmacokinetics, safety and tolerability of oral doses; assay type: in vivo, human; conditions: human, in vivo, po, 1000 mg, Cmax
measure name: Cmax (ng/mL)

item smiles | result
Nc1ccn([C@@H]2C(F)=C(CO)[C@@H](O)[C@H]2O)c(=O)n1 | 1640

====

test: Open-label dose-ranging study: pharmacokinetics, safety and tolerability of oral doses; format: in vivo, human; details: human, in vivo, po, 2000 mg, Cmax

item smiles | unit of measure | Cmax
Nc1ccn([C@@H]2C(F)=C(CO)[C@@H](O)[C@H]2O)c(=O)n1 | ng/mL | 1860

====

test: Open-label dose-ranging study: pharmacokinetics, safety and tolerability of oral doses; type: in vivo, human; settings: human, in vivo, po, 60 mg, Cmax

compound | Cmax
Nc1ccn([C@@H]2C(F)=C(CO)[C@@H](O)[C@H]2O)c(=O)n1 [RX-3117] | 113 ng/mL

====

assay: Open-label dose-ranging study: pharmacokinetics, safety and tolerability of oral doses; type: in vivo, human; conditions: human, in vivo, po, 1000 mg, AUC0-24

molecule | AUC(0-t) / ng·h/mL
Nc1ccn([C@@H]2C(F)=C(CO)[C@@H](O)[C@H]2O)c(=O)n1 [RX-3117] | 12200

====

test: Open-label dose-ranging study: pharmacokinetics, safety and tolerability of oral doses; assay type: in vivo, human; details: human, in vivo, po, 1000 mg, Tmax
measure name: Tmax (h)

item smiles | unit of measure | result
Nc1ccn([C@@H]2C(F)=C(CO)[C@@H](O)[C@H]2O)c(=O)n1 | h | 2
